Data provenance is paper PMC8401465.

# Test system: Vibrio anguillarum
# PROTOCOL_DESCRIPTION: Bactericidal activity (MTT), Vibrio anguillarum
# Format: cell-based
# REPORTED_CONDITIONS: Vibrio anguillarum; 0.1 µM; 5 h at 25 °C; read-out: Bactericidal activity (%)
Lab note: compare inhibition at 0.1 µM against -10%. Equal or greater, write Condition met. Smaller, write Condition not met.

COMPOUND: CC12CCC(CC1)C(C)(C)O2
DISCRETE_LABEL: Condition not met

Can C[C@@H]1CC[C@H]2C(C)(C)[C@H]3C[C@@]12CC[C@@]3(C)O be said to have inhibition at 0.1 µM at or above -10%?
Condition met
